The reported numbers originate from ChEMBL document CHEMBL1201862.

tested on: MDA-N; test: NCI tumour cell line growth inhibition, 48 h
The source made the active and inactive calls. Cut-off read from the data, not from the text of the source: active = GI50 up to about 1.1 µM and inactive = higher.
ENDPOINT NAME: GI50

{"MOLECULE": "COc1cc2c(cc1OC)C(=O)C1(C2)[C@H](c2ccccc2)C2C(=O)c3cc(OC)c(OC)cc3C2[C@H]1c1ccccc1 (stereo partly drawn)", "TESTED SYSTEM": "MDA-N", "GI50": "> 100 µM (inactive)"}
{"MOLECULE": "CC(C)(C)OC(=O)C(C1NC(C(=O)O)C(C)(C)S1)N1C(=O)c2ccccc2C1=O (stereo not drawn)", "TESTED SYSTEM": "MDA-N", "GI50": "> 100 µM (inactive)"}

From here, focus on the item given below.
Give GI50 for the following molecule: `CN(C)CCCn1c(-c2ccc(Br)cc2)cs/c1=N\c1ccccc1`
13.8 µM (inactive)

* * *

test system: MOLT-4; assay: NCI tumour cell line growth inhibition, 48 h
Calls of active or inactive are those of the source. Cut-off read from the data, not from the text of the source: active = GI50 up to about 1.1 µM and inactive = higher.
ENDPOINT NAME: GI50

{"COMPOUND": "CN1CCn2c(Br)ccc2C1=O", "TESTED SYSTEM": "MOLT-4", "GI50": "> 100 µM (inactive)"}
{"COMPOUND": "CC(=O)OC1CC2C(C)(C)C(=O)C=C[C@]2(C)C2CCC3(C)C(c4ccoc4)C(=O)C4OC43[C@]12C (stereo partly specified)", "TESTED SYSTEM": "MOLT-4", "GI50": "13.4 µM (inactive)"}
{"COMPOUND": "O=C1O[C@H]2[C@H](O)[C@@H](OC(=O)c3cc(O)c(O)c4c3[C@@H]3C1=CC(=O)C(O)(O)C3(O)O4)[C@H](OC(=O)c1cc(O)c(O)c(O)c1)O[C@@H]2CO (stereo partly specified)", "TESTED SYSTEM": "MOLT-4", "GI50": "> 100 µM (inactive)"}
{"COMPOUND": "O=C(NC(Cc1c[nH]c2ccccc12)C(=O)Nc1ccc(Br)cc1)OCc1ccccc1 (stereo unspecified)", "TESTED SYSTEM": "MOLT-4", "GI50": "4.53 µM (inactive)"}
{"COMPOUND": "CCCCNC1=C(C(=O)OCC)C(=O)CO1", "TESTED SYSTEM": "MOLT-4", "GI50": "> 100 µM (inactive)"}
{"COMPOUND": "CCOC(=O)C1=C(NC(C)(C)C)OC/C1=N\\NC(=O)Cc1ccccc1", "TESTED SYSTEM": "MOLT-4", "GI50": "> 100 µM (inactive)"}
{"COMPOUND": "CC(C)c1cccc(C(C)C)c1NC1=CC(=O)C(=O)c2ccccc21", "TESTED SYSTEM": "MOLT-4", "GI50": "58.5 µM (inactive)"}
{"COMPOUND": "Cn1cc2ccccc2c1-c1nc(F)nc(Oc2ccc3c(c2)CC[C@@H]2C3CC[C@@]3(C)C2C[C@H](O)[C@@H]3O)n1 (stereo partly specified)", "TESTED SYSTEM": "MOLT-4", "GI50": "5.43 µM (inactive)"}
{"COMPOUND": "O=c1ccc(=O)c2c1c1[nH]c3ccccc3c1c1c(=O)c3ccccc3c(=O)c21", "TESTED SYSTEM": "MOLT-4", "GI50": "3.24 µM (inactive)"}
{"COMPOUND": "Cc1cn(C2C=CC(COP(=O)(OCC3=CC(=O)c4ccccc4C3=O)N(C)CCCCCl)O2)c(=O)[nH]c1=O (stereo unspecified)", "TESTED SYSTEM": "MOLT-4", "GI50": "0.15 µM (active)"}

Give the measured GI50 for CC(=O)O[C@H]1CC[C@@]2(C)C(=CC[C@@H]3C2CC[C@]2(C)Nc4oncc4CC32)C1 (stereo partly specified)
10.7 µM (inactive)

Fill in reported GI50 for this entry: CC(C)CC1c2[nH]c3ccccc3c2C[C@H]2C(=O)NC(COC(C)(C)C)C(=O)N12 (stereo partly specified)
22.2 µM (inactive)

Consider the compound CC1=CC(C/C(C)=C/COc2ccc3ccc(=O)oc3c2)OC1=O (stereo unspecified) and give its recorded GI50.
49.8 µM (inactive)

For CN(C)c1cccc2c1C(=O)C=CC21CCc2ccc(N(C)C)c3c(N(C)C)ccc1c23 (stereo unspecified) , write its GI50.
12 µM (inactive)

Return value of GI50 for input `Cn1cc(S(=O)(=O)NC(=O)Nc2ccc(Cl)cc2)c(=O)c2ccc(F)cc21` , no commentary.
> 100 µM (inactive)

Complete the entry with GI50 for Cc1cc2c(c(/C=N/c3ccccc3O)c1)OC1(C=C2)Oc2ccccc2C(=O)N1C (stereo unspecified)
13.5 µM (inactive)

Please report GI50 for the following compound: `NC(=O)NC(=O)c1cnccn1`
> 100 µM (inactive)

Fill in GI50 for record CCOC(=O)C1(c2ccccc2)CCCNCC1 (stereo unspecified)
45.9 µM (inactive)

Look up GI50 of `CN(O)C(=O)/C=C/c1ccc(OCc2cccc(Cl)c2)cc1` and report it.
8.77 µM (inactive)
